The entries below come with measured Activity values attached.
- measurement target: Neuronal acetylcholine receptor subunit alpha-7 (Homo sapiens)
- Sequence (P36544 whole entry): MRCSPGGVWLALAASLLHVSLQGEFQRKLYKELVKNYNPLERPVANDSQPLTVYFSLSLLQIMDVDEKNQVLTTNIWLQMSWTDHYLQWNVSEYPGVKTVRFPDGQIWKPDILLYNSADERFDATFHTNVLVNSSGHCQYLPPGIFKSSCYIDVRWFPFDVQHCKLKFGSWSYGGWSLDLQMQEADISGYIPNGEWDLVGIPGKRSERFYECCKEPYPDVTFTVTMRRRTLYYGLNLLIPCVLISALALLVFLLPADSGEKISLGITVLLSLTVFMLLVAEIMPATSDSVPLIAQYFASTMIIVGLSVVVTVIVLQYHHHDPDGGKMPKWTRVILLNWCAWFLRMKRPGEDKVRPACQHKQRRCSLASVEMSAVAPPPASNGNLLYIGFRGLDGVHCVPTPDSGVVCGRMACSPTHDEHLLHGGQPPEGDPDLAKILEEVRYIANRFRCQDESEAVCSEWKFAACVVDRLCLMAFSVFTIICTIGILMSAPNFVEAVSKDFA
- protocol notes: […] to human alpha7 nAChR expressed in xenopus oocytes preincubated for 10 mins followed by acetylcholine addition by patch clamp electrophysiological assay relative to acetylcholine
- Assay type: cell-based
- Parameters: concentration or dose not given beside the values

molecule	limit sign	Activity, %
O=C(N[C@H]1CN2CCC1CC2)c1cc2ccc(Br)cn2c1	=	86.3
O=C(N[C@H]1CN2CCC1CC2)c1cc2cccc(Cl)c2s1 [ENCENICLINE]	=	33.5
O=C(N[C@H]1CN2CCC1CC2)c1cc2cc(Cl)ccn2c1	=	19.6
O=C(N[C@H]1CN2CCC1CC2)c1cc2c(Br)cccn2c1	=	75.9
CCOC(=O)c1cc(C(=O)c2cccc(C(F)(F)F)c2)n2ccc(C(=O)N[C@H]3CN4CCC3CC4)cc12	<	1
CCOC(=O)c1cc(C(=O)c2ccc(Cl)c(Cl)c2)n2ccc(C(=O)N[C@H]3CN4CCC3CC4)cc12	<	1
O=C(N[C@H]1CN2CCC1CC2)c1cc(C(=O)c2cccc(Cl)c2)n2ccccc12	<	1
CCOC(=O)c1cc(C(=O)c2ccccc2)n2ccc(C(=O)N[C@H]3CN4CCC3CC4)cc12	<	1
O=C(N[C@H]1CN2CCC1CC2)c1cc(C(=O)c2ccccc2)n2ccccc12	<	1
Cc1ccccc1-c1ccc2cc(C(=O)N[C@H]3CN4CCC3CC4)cn2c1	<	1
O=C(N[C@H]1CN2CCC1CC2)c1cc2cc(-c3ccccc3)ccn2c1	<	1
Cc1cccc(-c2cccc3cc(C(=O)N[C@H]4CN5CCC4CC5)cn23)c1	=	63.9
O=C(N[C@H]1CN2CCC1CC2)c1cc2c(Cl)cccn2c1	<	1
O=C(N[C@H]1CN2CCC1CC2)c1cc2cc(Br)ccn2c1	=	34.7
O=C(N[C@H]1CN2CCC1CC2)c1cc2ccc(-c3cccs3)cn2c1	<	1
CCOC(=O)c1cc(C(=O)c2cccc(F)c2)n2ccc(C(=O)N[C@H]3CN4CCC3CC4)cc12	<	1
O=C(N[C@H]1CN2CCC1CC2)c1cc2c(F)cccn2c1	=	63.7
Cc1cccc2cc(C(=O)N[C@H]3CN4CCC3CC4)cn12	=	66
O=C(N[C@H]1CN2CCC1CC2)c1cc(C(=O)c2ccc(-c3ccccc3)cc2)n2ccccc12	<	1
O=C(N[C@H]1CN2CCC1CC2)c1cc2cccc(Cl)n2c1	=	63.2

====

- measurement target: Neuronal acetylcholine receptor subunit alpha-7 (Homo sapiens)
- protocol notes: Agonist activity at human alpha7 nAChR expressed in xenopus oocytes preincubated for 10 mins followed by acetylcholine addition by patch clamp electrophysiological assay
- Type: cell-based
pEC50: −log10 of the molar value.
The compounds listed here are annotated with their pEC50.
property name: pEC50

sample smiles	measurement target	property name	limit sign	endpoint result
O=C(N[C@H]1CN2CCC1CC2)c1cc2cccc(Cl)n2c1	Neuronal acetylcholine receptor subunit alpha-7 (Homo sapiens)	pEC50	=	5.60
CCOC(=O)c1cc(C(=O)c2cccc(C(F)(F)F)c2)n2ccc(C(=O)N[C@H]3CN4CCC3CC4)cc12	Neuronal acetylcholine receptor subunit alpha-7 (Homo sapiens)	pEC50	<	4.70
Cc1cccc(-c2cccc3cc(C(=O)N[C@H]4CN5CCC4CC5)cn23)c1	Neuronal acetylcholine receptor subunit alpha-7 (Homo sapiens)	pEC50	=	5.40
O=C(N[C@H]1CN2CCC1CC2)c1cc2cccc(-c3ccc(-c4ccccc4)cc3)n2c1	Neuronal acetylcholine receptor subunit alpha-7 (Homo sapiens)	pEC50	=	4.85
CCOC(=O)c1cc(C(=O)c2cccc([N+](=O)[O-])c2)n2ccc(C(=O)N[C@H]3CN4CCC3CC4)cc12	Neuronal acetylcholine receptor subunit alpha-7 (Homo sapiens)	pEC50	<	4.70
O=C(N[C@H]1CN2CCC1CC2)c1cc(C(=O)c2cccc(Br)c2)n2ccccc12	Neuronal acetylcholine receptor subunit alpha-7 (Homo sapiens)	pEC50	<	4.70

These measurements were taken from ChEMBL document CHEMBL3785087.
